The reported measurements were obtained from the Human Domainome abundance scans (Beltran et al. 2025).

Parameter abundance fitness: see the listing below.
B1: Ankyrin-1, residues 1405 to 1484; numbered along this chain, P16157 (parent)
chain: MKMAVISEHLGLSWAELARELQFSVEDINRIRVENPNSLLEQSVALLNLWVIREGQNANMENLYTALQSIDRGEIVNMLE

Variants of: B1
Assay: abundance fitness (aPCA) (normalised: wild type 0, dead -1); higher = more abundant; growth selection in yeast, the domain comes from the species named
Details: Homo sapiens

Examples from the recorded data:
## Task If you can, please state the reported abundance fitness value of "L79H" .
## Result -0.199

## Task Record: "N62E"
## Result -0.197

Continue with the next variant.
## Task Could you share which abundance fitness value was measured for "V33S" ?
## Result -0.03
